experiment notes: soluble fraction after stress (log2 fold change); higher = more stays soluble; pooled small domains, quantitative proteomics
assay context: stress: pH 4
Assign 1 to entries whose soluble fraction (log2) meets or exceeds -0.07; assign 0 to the rest.

Exercise: I'd appreciate it if you could say whether `HMRDGYEKPTEVGEGGRNPAMLSYIGHLRAKGHLSEEDIRSMAHGFNATTFDPPLDRDEVDGLVSRY` has soluble fraction (log2) at least equal to -0.07.
Solution: 1

New cases:
Exercise: Exam item: decide whether the reported soluble fraction (log2) for `HMPVEHVWHIAENGQTSGPYSKARMGRMAQEGQLTRDTHVWTPGQDGWMRAGDVTELAQLFT` is at least -0.07.
Solution: 0

Exercise: Can `HMEGLDDKTKIILFAGDKKEQEYSLADLKSKLNITENLTESELIKLLEKQGYVLDVNANNEFMFKKD` be said to have soluble fraction (log2) at or above -0.07?
Solution: 1

----------
experiment notes: soluble fraction after stress (log2 fold change); higher = more stays soluble; pooled small domains, quantitative proteomics
assay context: stress: pH 4
# binarize soluble fraction (log2): threshold -0.4 inclusive, high side MET, low side NOT MET

Examples with answers:
Exercise: Textbook exercise: given the entry `HMSQKVQEDFLGDIRKNEIAVTVFLINGVKLQGVITWFDDASILLRRDGHTQLIYKHAVSTIMPGVAVDI` , state whether its soluble fraction (log2) is greater than or equal to -0.4.
Solution: NOT MET

Exercise: hey, is soluble fraction (log2) for this one >= -0.4? `HMLDVGDQLVKKLKDNDSLDFHFVNSKEANKGLKDGDYYMVITIPSNFSKNATTLLDKNPKKMVLNYTTNP`
Solution: MET

Exercise: For this sequence, is measured soluble fraction (log2) -0.4 or higher? `HMQSDQLSDREREILRLIGSGRTNQEISQELQVSGSTVRTHLQHILDKLGLENRNQAVLYAIRIGLAAPP`
Solution: MET

Exercise: Dear colleague, could you confirm whether `HMGEEIRTWTDAQGRKIEARMSMLDGDQVLLELKDGRKIPYPLAKLSADDAHYARHFASASASD` has soluble fraction (log2) at or above -0.4?
Solution: MET

***
Exercise: Threshold query (soluble fraction (log2) >= -0.4) on `HMDTITMAGERYAVSDLEKVSGDIFEKAFGFEIDPKTADAKDVLPTMPKSDVDLFKKLSGIKP`
Solution: MET

Exercise: Determine whether this sequence has soluble fraction (log2) no lower than -0.4: `HMAVPAALVQAWLELSRRMVAGTQDVGERFAEEARKMHYGETEDRGIRGQATLTEVRDLLDEGIEVLPLLL`
Solution: NOT MET

Exercise: Is soluble fraction (log2) for `HMSGNPLDTYYSKWSAEIKKGSPNAVISKEGDKYYVSIPGENRMAIIYENPHLIRMVNATRNIHVE` at or above -0.4?
Solution: MET

Exercise: Test whether the sequence `HMSGPSDRDLFDEALALLSGSGREPDYHEARIRLGTLVEQFPESKWAEGAKALLSMLDRVSALQV` records soluble fraction (log2) of -0.4 or higher.
Solution: NOT MET

Exercise: Reported soluble fraction (log2) reaches at least -0.4 for `HMKDYQGEISVVASGERIDVYLFNYFNLFSRTKIKNHIKNGNILVNENIISPSYILKQNDKIAFNLGAPY` ?
Solution: NOT MET

Exercise: Check if soluble fraction (log2) >= -0.4 (inclusive). Item: `HMSKTQYTFREVGSQFELHAPSTNHKIMVDANHPKYGWLSSQEAGRVINVYESGKMTSSQDYYGLYKQS`
Solution: NOT MET

Exercise: Determine whether measured soluble fraction (log2) meets or exceeds -0.4 for `HMSTKRQKELLEYVDRFITEHGYGPSYREIMNAIGYKSVSTVAIHIDGLIAKGYLRKRDNSARSLEVV`
Solution: MET

----------
experiment notes: soluble fraction after stress (log2 fold change); higher = more stays soluble; pooled small domains, quantitative proteomics
assay context: stress: pH 4
readout label: soluble fraction (log2)
Please give the numeric answer without any surrounding text.

Exercise: Report soluble fraction (log2), nothing else, for this sequence: `HMSHQIIIVAVELDPSTERIVYYLSKNGISINVLFFKVFQHGDEQFLSRVWLIDPSETQTNAALA`
Solution: -0.424

Exercise: State its soluble fraction (log2) for this sequence: `HMYIDANTALLAKRIQAKNGFLPLSDKSTAEEIYAEFGISKKAFKKALGALYKERLVRIGDEGVVWV`
Solution: 0.0176

Exercise: Give the measured soluble fraction (log2) for `HMESRETGLPVVIISDGRILQDNLKRRGLDLSWLDKQLAEHGYPDFRDVFLLTVDEAGGVYFVPRE`
Solution: -0.145

Exercise: Dear colleague, please send me the reported soluble fraction (log2) for `HMFAQDQLFKKDNSKVDVKILEINTTEIKYKLFTYQDGPTITVAKKDVALIIYQNGVHEVIT` when you can.
Solution: -1.17

Exercise: Please supply the value of reported soluble fraction (log2) for the item `HMNETRVDQAADLLLALLEKEPKSAAEILDEFEQAGFSKSGLYRAKDALGVVSIRKEGRWVWSLPHSLD`
Solution: -0.778

Exercise: State its soluble fraction (log2): `HMKTLDATQRLKLNGEGIIVFNFGKYVDQPVVEIFKKERGYFAWMMSKDFSQQVKNIITKIHNEEILGK`
Solution: -0.344

Exercise: Answer with the recorded soluble fraction (log2) for the sequence listed here: `HMAGNNTATKEIAELLIAKGADVNAMNLSPPGREIGGMTPLDMAILGNRNEIADLLRKHGGRTQKELKAE`
Solution: -0.104

Exercise: Output soluble fraction (log2) of `HMDEEDVLNELIRRLALTADDRLLLSLSYEDGLSSRKIATLLETSAATVQRRLAGLHHQLEQALRVMGLA`
Solution: -0.828

Exercise: Recall and state the measured soluble fraction (log2) for `HMGNHRNMSAEEEAAILAPFKARAEAGELVEISEIAKAYQSAVDHPISRGQIYFVLHRHGWRKV` .
Solution: -0.638

Exercise: Answer with the recorded soluble fraction (log2) of `HMLTLDEKRRLQIMRVQVALTSLGLYNGRVDGVLNAETKLGLEFFQDLKGLPKSGTMTTPTLNALGVPA` only.
Solution: -0.347

Exercise: Supply measured soluble fraction (log2) of `HMQGVTVPDLTRVSLEEAVATISSLGLRYEISDRRSNAAFPANYVLDQAPGANTIVKPNRKVYLTVNAA` in your reply.
Solution: 0.381

Exercise: Identify soluble fraction (log2) associated with the sequence `HMSKFSDTLVYLRKRAGFSQQELADKMEVSRSLVGMYESGQRMPSYEMLEALADIFNVNIDFLTGH`
Solution: -0.586

Exercise: Recall and state the measured soluble fraction (log2) for `HMTITDDETHKVLEEGASRMSEGLTFRDLVDLDRLHLTARGVIQKVLNENRIDADVDTIANMAQKLVARVS` .
Solution: -0.567

Exercise: Give the reported value of soluble fraction (log2) for this record: `HMNRIGERIKRKRELRNLNLGELAEKVGISASALSQIEKSKSFPSVITLKSIAEQLRTTVGELIGEN`
Solution: 0.328

----------
experiment notes: soluble fraction after stress (log2 fold change); higher = more stays soluble; pooled small domains, quantitative proteomics
assay context: stress: pH 4
Collected soluble fraction (log2) values appear next to each entry.

Sample answers from the record:
Exercise: Provide only the value of recorded soluble fraction (log2) for `HMLLLASTPAEQTIIQLLAEGWRDGDQLQQRSHLSAADFSTALTMLEVNGSIKPLGANHWALTH`
Solution: -0.185

Exercise: Look up soluble fraction (log2) of `HMAFDGIVLKNITNALKELINGKINKIQQSSKDNLTLSIYNQKSYNLYIDISANNYRVNLTTHSE` and report it.
Solution: 0.22

Exercise: Determine its reported soluble fraction (log2): `HMRVGADLTQRERELLALMAQGMSNQEIAKRLEIAVPTVKFHITNILDKLQVGNRTEAVIAALEHKLVP`
Solution: -0.767

New cases:
Exercise: For the sequence `HMIKITLGWVISVRRHDLGYTQHKMARAVGISDLTVSRIESDDGITPDNNTLRKIAEYLKIDYNSLLTLK` , give its measured soluble fraction (log2) value.
Solution: -0.175

----------
Entries and their measured soluble fraction (log2) follow.
experiment notes: soluble fraction after stress (log2 fold change); higher = more stays soluble; pooled small domains, quantitative proteomics
assay context: stress: pH 4
// no unit, no text: just the number

These recorded examples may help you get a feel for the data.
Exercise: Look up and report measured soluble fraction (log2) for this entry: `HMPDFAENAVYGKQREDSLYAHAYKHFQLGDTTTVRAAEHLSAEIYPLGQHRPKFMFLNAVTR`
Solution: 0.22

Exercise: Find the measured soluble fraction (log2) of `HMTESFEFTMNDLVQNNLIMGSGAKERRIAVGEALGIGYTNAKQFLSRLNHYGITRKEFDDEIEKVNQN` and report it.
Solution: -0.217

Exercise: For the sequence `HMHRGEIVDGVIASVNPRSILIDIGGKSDALVHPRELERMSDEDLRSLKPGQDVSVYVIETDSDGTMLVSL` , report soluble fraction (log2).
Solution: -0.86

Exercise: Find the measured soluble fraction (log2) of `HMKITIDSVERDETFRLIWGTGWKPKNKIQELAAIQAKKNGLGRMNEVAGLAAWRGIWQQVAEQVAQEVL` and report it.
Solution: -0.843

Exercise: Give soluble fraction (log2) for `HMGSFTDKQIKQAFGVLNDPRFKQGNYDGAVAVINKIAPGLADHPSVANALKRANEATQDIAQQTQA`
Solution: 0.161

Others:
Exercise: Assign soluble fraction (log2) to the following record: `HMRSVPNVAGLGMDGAAFQLGKAGFAIGTITPADDPKAVVGSIQRTEPAAGTVADRDTVVNLFQV`
Solution: 0.22

Exercise: Input `HMNFHLEHHIAELLYRSIRGELSDFERQELNQWRSDSPMHETLFMRLQDDEYIDEELGVFIK` , output reported soluble fraction (log2).
Solution: -1.89

Exercise: Determine from records and report soluble fraction (log2) for `HMKKDDLKQINGIGTTIEKKLNEIDIYNFYQISNLSKEDIETISEKIKTFPGKIERDNWVGQAQELL`
Solution: -0.844

Exercise: Return the recorded soluble fraction (log2) value; entry: `HMNQIDDADRKRVVDEVAGQFSSMSLTEMRSDREKLLSRIIPQVQTTLNRLGLQTIDVEGIAREVIARVG`
Solution: -0.288

Exercise: Using known records, supply soluble fraction (log2) for `HMKTRTVVLKSAGGNKIAVIKIIKEITGLGLVEAKAVADNGGNIKENIPAEEAEAIKTQLTEAGAEVEL`
Solution: -0.242

Exercise: Specify measured soluble fraction (log2) for `HMPSPTPEQVLKAFTDAAMQKNTVEELKQAFAKAWKMLEGTPEQHKAQDVYNIRRDELEGAA` .
Solution: -0.0378

Exercise: In one line, give reported soluble fraction (log2) of the entry `HMTRETTQAWWEARQTLPSGEQRSAASLSQEASHVRRFYRWAMQQGLTDRNPADWLPDVRQK` .
Solution: -0.062
